Task for the reader: assign each of the following molecules its reported mortality %.
system: house fly (Musca domestica); details: in vivo, topical_or_ocular, 1440 min

# mortality % (molecule: CC#CCNC(=O)c1ccc2ccccc2c1 [Compound 535, N-(2-Butynyl)-2-naphthamide] ) is 27%

mortality % in this record for CC#CCOC(c1ccc2c(c1)OCO2)C(C)C (centres unmarked) : 63%

response.value for C#CCOC(=O)c1ccc2c(c1)OCO2 [Compound 501, 2-Propynyl 1,3-benzodioxol-5-carboxylate] (field: mortality %) = 53%

The reported mortality % of the molecule CC#CCOC(CC)c1cccc2ccccc12 (centres unmarked) [Compound 454, 1-[1-(2-butynyloxy)-propyl]-naphthalene] was 75%

For this molecule ( CC#CCOC(c1ccc2c(c1)OCO2)C1CCCCC1 (centres unmarked) ), measured mortality % is 58%

In plain terms, CC#CCON=C(C)c1ccc(OC)c(OC)c1 has a documented mortality % of 55%

The value of mortality % measured for the molecule CC#CCOC(C)c1cccc2ccccc12 (centres unmarked) [Compound 292, 1-[1-(2-butynyloxy)-ethyl]-naphthalene] turned out to be 72%

For reference, reported mortality % for C#CCO[C@@H](C)c1ccc2ccccc2c1 stands at 50%

According to the records, this molecule CC#CCNC(=O)c1ccc2c(c1)OCO2 displays mortality % of 17%

The reported value for CC#CCOC(C)c1ccc2ccccc2c1 (centres unmarked) [Compound 293, 2-[1-(2-butynyloxy)-ethyl]-naphthalene] in terms of mortality % is 45%

Recorded mortality % (molecule CC#CCO[C@@H](C)c1ccc2ccccc2c1 ): 47%

Please fill in: mortality % reported for CC#CCOC1CCc2ccccc21 (centres unmarked) = 58%

The reported value for CC#CCOC(c1ccccc1)c1ccc2c(c1)OCO2 (centres unmarked) in terms of mortality % is 90%

Value of measured mortality % for the entry CC#CCOC(C)c1ccc(OC)c(OC)c1 (centres unmarked) : 100%

Query CC#CCCOc1ccc([N+](=O)[O-])cc1 yields mortality % of 60%

The value of mortality % measured for the molecule CC#CCNC(=O)c1cccc2ccccc12 [Compound 542, N-(2-Butynyl)-1-naphthamide] turned out to be 42%

Field mortality % (entry CC#CCO[C@H](C)c1ccc2ccccc2c1 ) reads 70%

The measurements presented in this section are drawn from patent US6277867A.
